procedure-text: Cytotoxicity against mouse J774.A1 cells assessed as cell viability at 10 uM incubated for 5 hrs by Cell Titer-Glo Luminescent Cell Viability assay relative to control
Assay type: toxicity, cell-based
condition-parameters: read-out: Activity
With a cut-off of 80%, any viability at 5 h, 10 µM strictly below it is called condition met; any viability at 5 h, 10 µM meeting it or above is called condition not met.

{"smiles-str": "CC(C)OC(=O)[C@H](Cc1ccccc1)NP(=O)(COCCn1cc(-c2cccc(S(N)(=O)=O)c2)c2c(N)ncnc21)N[C@@H](Cc1ccccc1)C(=O)OC(C)C", "cat": "condition not met"}
{"smiles-str": "CC(C)OC(=O)[C@H](Cc1ccccc1)NP(=O)(COCCn1cc(-c2cccc(C(N)=O)c2)c2c(N)ncnc21)N[C@@H](Cc1ccccc1)C(=O)OC(C)C", "cat": "condition not met"}
{"smiles-str": "CC(C)OC(=O)[C@H](Cc1ccccc1)NP(=O)(COCCn1cc(-c2cccs2)c2c(N)ncnc21)N[C@@H](Cc1ccccc1)C(=O)OC(C)C", "cat": "condition met"}
{"smiles-str": "CCc1cn(CCOCP(=O)(N[C@@H](Cc2ccccc2)C(=O)OC(C)C)N[C@@H](Cc2ccccc2)C(=O)OC(C)C)c2ncnc(N)c12", "cat": "condition not met"}
{"smiles-str": "COc1ccccc1-c1cn(CCOCP(=O)(N[C@@H](Cc2ccccc2)C(=O)OC(C)C)N[C@@H](Cc2ccccc2)C(=O)OC(C)C)c2ncnc(N)c12", "cat": "condition not met"}
{"smiles-str": "C#Cc1cn(CCOCP(=O)(N[C@@H](Cc2ccccc2)C(=O)OC(C)C)N[C@@H](Cc2ccccc2)C(=O)OC(C)C)c2ncnc(N)c12", "cat": "condition not met"}

###

Test system: HeLa S3
procedure-text: Cytotoxicity against human HeLa S3 cells by CellTiter-Glo 2.0 assay
Format: functional, cell-based
pIC50: −log10 of the molar value.
Recorded pIC50 for the following compounds

{"compound": "CCc1cn(CCOCP(=O)(N[C@@H](Cc2ccccc2)C(=O)OC(C)C)N[C@@H](Cc2ccccc2)C(=O)OC(C)C)c2ncnc(N)c12", "comparison-symbol": "<", "pIC50": 5.00}
{"compound": "CC(C)OC(=O)[C@H](Cc1ccccc1)NP(=O)(COCCn1cc(-c2cccc(-c3noc(=O)[nH]3)c2)c2c(N)ncnc21)N[C@@H](Cc1ccccc1)C(=O)OC(C)C", "comparison-symbol": "<", "pIC50": 5.00}
{"compound": "CC(C)OC(=O)[C@H](Cc1ccccc1)NP(=O)(COCCn1cc(-c2cccc(C(=O)O)c2)c2c(N)ncnc21)N[C@@H](Cc1ccccc1)C(=O)OC(C)C", "comparison-symbol": "<", "pIC50": 5.00}
{"compound": "C=C(C)c1cn(CCOCP(=O)(N[C@@H](Cc2ccccc2)C(=O)OC(C)C)N[C@@H](Cc2ccccc2)C(=O)OC(C)C)c2ncnc(N)c12", "comparison-symbol": "<", "pIC50": 5.00}
{"compound": "CC(C)OC(=O)[C@H](Cc1ccccc1)NP(=O)(COCCn1cc(-c2cccc(C#N)c2)c2c(N)ncnc21)N[C@@H](Cc1ccccc1)C(=O)OC(C)C", "comparison-symbol": "=", "pIC50": 5.00}
{"compound": "CC(C)OC(=O)[C@H](Cc1ccccc1)NP(=O)(COCCn1cc(C#Cc2ccccc2)c2c(N)ncnc21)N[C@@H](Cc1ccccc1)C(=O)OC(C)C", "comparison-symbol": "=", "pIC50": 5.28}
{"compound": "CC(C)OC(=O)[C@H](Cc1ccccc1)NP(=O)(COCCn1cc(-c2cccs2)c2c(N)ncnc21)N[C@@H](Cc1ccccc1)C(=O)OC(C)C", "comparison-symbol": "=", "pIC50": 5.96}
{"compound": "CC(C)OC(=O)[C@H](Cc1ccccc1)NP(=O)(COCCn1cc(-c2cccc(C(N)=O)c2)c2c(N)ncnc21)N[C@@H](Cc1ccccc1)C(=O)OC(C)C", "comparison-symbol": "<", "pIC50": 5.00}
{"compound": "CC(C)OC(=O)[C@H](Cc1ccccc1)NP(=O)(COCCn1cc(-c2ccco2)c2c(N)ncnc21)N[C@@H](Cc1ccccc1)C(=O)OC(C)C", "comparison-symbol": "=", "pIC50": 5.89}
{"compound": "CC(C)OC(=O)[C@H](Cc1ccccc1)NP(=O)(COCCn1cc(-c2ccc([N+](=O)[O-])cc2)c2c(N)ncnc21)N[C@@H](Cc1ccccc1)C(=O)OC(C)C", "comparison-symbol": "=", "pIC50": 5.53}
{"compound": "CC(C)OC(=O)[C@H](Cc1ccccc1)NP(=O)(COCCn1cc(-c2cncnc2)c2c(N)ncnc21)N[C@@H](Cc1ccccc1)C(=O)OC(C)C", "comparison-symbol": "<", "pIC50": 5.00}
{"compound": "CCOC(=O)[C@H](C)NP(=O)(COCCn1cc(-c2ccc(OC)cc2)c2c(N)ncnc21)Oc1ccccc1 (stereo partly drawn)", "comparison-symbol": "<", "pIC50": 5.00}
{"compound": "CC(C)OC(=O)[C@H](Cc1ccccc1)NP(=O)(COCCn1cc(-c2cccc(NS(C)(=O)=O)c2)c2c(N)ncnc21)N[C@@H](Cc1ccccc1)C(=O)OC(C)C", "comparison-symbol": "=", "pIC50": 4.82}
{"compound": "COc1ccccc1-c1cn(CCOCP(=O)(N[C@@H](Cc2ccccc2)C(=O)OC(C)C)N[C@@H](Cc2ccccc2)C(=O)OC(C)C)c2ncnc(N)c12", "comparison-symbol": "=", "pIC50": 5.44}
{"compound": "CC(C)OC(=O)[C@H](Cc1ccccc1)NP(=O)(COCCn1cc(-c2cccc(S(N)(=O)=O)c2)c2c(N)ncnc21)N[C@@H](Cc1ccccc1)C(=O)OC(C)C", "comparison-symbol": "<", "pIC50": 5.00}
{"compound": "CC(C)OC(=O)[C@H](Cc1ccccc1)NP(=O)(COCCn1cc(-c2ccccn2)c2c(N)ncnc21)N[C@@H](Cc1ccccc1)C(=O)OC(C)C", "comparison-symbol": "=", "pIC50": 5.10}
{"compound": "COc1cccc(-c2cn(CCOCP(=O)(N[C@@H](Cc3ccccc3)C(=O)OC(C)C)N[C@@H](Cc3ccccc3)C(=O)OC(C)C)c3ncnc(N)c23)c1", "comparison-symbol": "=", "pIC50": 5.04}
{"compound": "C#Cc1cn(CCOCP(=O)(N[C@@H](Cc2ccccc2)C(=O)OC(C)C)N[C@@H](Cc2ccccc2)C(=O)OC(C)C)c2ncnc(N)c12", "comparison-symbol": "<", "pIC50": 5.00}
{"compound": "CC(C)OC(=O)[C@H](Cc1ccccc1)NP(=O)(COCCn1cc(C(C)C)c2c(N)ncnc21)N[C@@H](Cc1ccccc1)C(=O)OC(C)C", "comparison-symbol": "<", "pIC50": 5.00}
{"compound": "CC(C)OC(=O)[C@H](Cc1ccccc1)NP(=O)(COCCn1cc(-c2cccc(-c3nn[nH]n3)c2)c2c(N)ncnc21)N[C@@H](Cc1ccccc1)C(=O)OC(C)C", "comparison-symbol": "<", "pIC50": 5.00}
{"compound": "CC(C)OC(=O)[C@H](Cc1ccccc1)NP(=O)(COCCn1cc(-c2ccccc2)c2c(N)ncnc21)N[C@@H](Cc1ccccc1)C(=O)OC(C)C", "comparison-symbol": "=", "pIC50": 5.28}
{"compound": "COc1ccc(-c2cn(CCOCP(=O)(OCOC(=O)C(C)(C)C)OCOC(=O)C(C)(C)C)c3ncnc(N)c23)cc1", "comparison-symbol": "<", "pIC50": 5.00}
{"compound": "Cc1cn(CCOCP(=O)(N[C@@H](Cc2ccccc2)C(=O)OC(C)C)N[C@@H](Cc2ccccc2)C(=O)OC(C)C)c2ncnc(N)c12", "comparison-symbol": "<", "pIC50": 5.00}
